Reference source for all entries: PubChem BioAssay AID1159580

experiment: chemical genetic growth profiling, strain panel (AID 1159580);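 note: tested at 20 µM; growth read once vehicle control cultures reached saturation at 30 °C; lower values mean less growth of the strain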; conditions: S. cerevisiae deletion strains, growth OD, locus YDR001C, strain nth1
Hit rate of the full screen: of about 5,500 compounds, about 2,000 (36%) were called active. Another 18% or so got no clear call; they are omitted. Cut-off read from the data, not from the text of the source: active = normalized growth mostly below about 0.91 (no sharp cut-off); inconclusive = no clear call, values can overlap the other calls; inactive = mostly above about 0.92. The list shows a part of the results.
Can you answer with just one of these options? true for active, false for inactive

Examples with answers:
CC1(C)C(=O)C=C[C@@]2(C)C1C[C@@H](O)[C@]1(C)C2CC[C@@]2(C)[C@H](c3ccoc3)OC(=O)[C@H]3O[C@]321 (some centres undefined)    false
O=C(Cc1cccs1)NC1C(=O)N2C(C(=O)[O-])=C(C[n+]3ccccc3)CSC12 (centres undefined)    false

Task: Please let me know the test result on file for CC(=O)Oc1ccc2c(c1C(C)C)CCC1C(C)(C)CCC[C@]21C (some centres undefined) .
Result: false

Task: Entry `COc1ccc(-c2cc(=O)c3c(O)cc(O[C@@H]4O[C@H](CO[C@H]5O[C@H](C)[C@@H](O)[C@H](O)[C@@H]5O)[C@@H](O)[C@H](O)[C@H]4O)cc3o2)cc1O` : call = ?
Result: false

Task: Hey, what did the test say about CC(CC(C(N)=O)(c1ccccc1)c1ccccc1)N(C)C (centres undefined) ?
Result: false

Task: I would be grateful if you could indicate the recorded call for `COc1ccccc1/C=C\C(=O)O` .
Result: false
